Every entry's value here was drawn from paper PMC7144919.

Biological target: Hfq full length WT (Escherichia coli, UniProt P0A6X3 2-102)
Assay: fluorescence polarization
assayMetric: pKd
// pKd: -log10(molar conc.)

pKd measured on xtal DNA, 30 bp with three 6-bp A-tracts (dsDNA) DNA 1: CGGCAAAAAACGGCAAAAAACGGCAAAAAA DNA 2: TTTTTTGCCGTTTTTTGCCGTTTTTTGCCG = 6.76
